Experiment: PAMPA permeability, brain total lipid extract (BTLE) membrane
Details: pig, PAMPA, pH 7.4
Hi! Just check whether Papp at 4 h, 100 μM is below 20 ×10⁻⁶ cm/s. Below gives Satisfied, equal or above gives Not satisfied.

{"molecule": "CN1C(C(=O)Nc2ccccn2)=C(O)c2ccccc2S1(=O)=O", "category-label": "Satisfied"}
{"molecule": "CC(=O)CC(c1ccccc1)c1c(O)c2ccccc2oc1=O (stereo not drawn)", "category-label": "Satisfied"}
{"molecule": "CC(C)Cc1ccc(C(C)C(=O)O)cc1 (stereo not drawn)", "category-label": "Satisfied"}
{"molecule": "CC(CCc1ccccc1)NCC(O)c1ccc(O)c(C(N)=O)c1 (stereo not drawn)", "category-label": "Satisfied"}
{"molecule": "O=C1NC(=O)C(c2ccccc2)(c2ccccc2)N1", "category-label": "Not satisfied"}
{"molecule": "NC(=O)Cc1cccc(C(=O)c2ccccc2)c1N", "category-label": "Not satisfied"}

* * *

Assay: PAMPA permeability, liver total lipid extract (LTLE) membrane
Details: Liver total lipid extract membrane, n=3

{"compound": "CC(C)C(=O)Nc1ccc([N+](=O)[O-])c(C(F)(F)F)c1 [flutamide]", "relational-operator": "=", "Mean logPe": -4.32}
{"compound": "N=C(N)c1ccc(OCCCOc2ccc(C(=N)N)cc2)cc1", "relational-operator": "<", "Mean logPe": -6.12}
{"compound": "CC1=NNS(=O)(=O)c2c1ccc(Cl)c2Cl", "relational-operator": "=", "Mean logPe": -4.66}
{"compound": "CO/N=C(\\C(=O)N[C@@H]1C(=O)N2C(C(=O)O)=C(COC(N)=O)CS[C@H]12)c1ccco1", "relational-operator": "<", "Mean logPe": -5.94}
{"compound": "O=C1NC(=O)C(c2ccccc2)(c2ccccc2)N1", "relational-operator": "=", "Mean logPe": -4.35}
{"compound": "NC(=O)Cc1cccc(C(=O)c2ccccc2)c1N", "relational-operator": "=", "Mean logPe": -4.14}
{"compound": "CC(CCc1ccccc1)NCC(O)c1ccc(O)c(C(N)=O)c1 (stereo not shown)", "relational-operator": "=", "Mean logPe": -4.42}
{"compound": "Cn1c(=O)c2c(ncn2C)n(C)c1=O", "relational-operator": "=", "Mean logPe": -4.7}
{"compound": "CN1C(C(=O)Nc2ccccn2)=C(O)c2ccccc2S1(=O)=O", "relational-operator": "=", "Mean logPe": -4.79}
{"compound": "Cc1c(OCC(F)(F)F)ccnc1C[S+]([O-])c1nc2ccccc2[nH]1 (stereo not shown)", "relational-operator": "=", "Mean logPe": -4.21}

* * *

Experiment: PAMPA permeability, heart polar lipid extract (HPLE) membrane
Conditions: Heart Polar lipid extract membrane, n=3
readout-kind: Mean logPe

{"molecule": "CC(=O)CC(c1ccccc1)c1c(O)c2ccccc2oc1=O (stereo not shown)", "readout-kind": "Mean logPe", "recorded-result": -5.50}
{"molecule": "NC(=O)Cc1cccc(C(=O)c2ccccc2)c1N", "readout-kind": "Mean logPe", "recorded-result": -4.59}
{"molecule": "CC(C)C(=O)Nc1ccc([N+](=O)[O-])c(C(F)(F)F)c1 [flutamide]", "readout-kind": "Mean logPe", "recorded-result": -4.30}
{"molecule": "COc1ccc2c(c1)N(C[C@H](C)CN(C)C)c1ccccc1S2", "readout-kind": "Mean logPe", "recorded-result": -5.20}
{"molecule": "CC(C)Cc1ccc(C(C)C(=O)O)cc1 (stereo not shown)", "readout-kind": "Mean logPe", "recorded-result": -4.62}
{"molecule": "CCn1cc(C(=O)O)c(=O)c2cc(F)c(N3CCNCC3)cc21", "readout-kind": "Mean logPe", "recorded-result": -5.80}
{"molecule": "CC1=NNS(=O)(=O)c2c1ccc(Cl)c2Cl", "readout-kind": "Mean logPe", "recorded-result": -5.35}
{"molecule": "CC1Cc2ccccc2N1NC(=O)c1ccc(Cl)c(S(N)(=O)=O)c1 (stereo not shown) [indapamide]", "readout-kind": "Mean logPe", "recorded-result": -5.28}
{"molecule": "O=C1CN=C(c2ccccc2)c2cc([N+](=O)[O-])ccc2N1", "readout-kind": "Mean logPe", "recorded-result": -4.54}
{"molecule": "Cn1c(=O)c2c(ncn2C)n(C)c1=O", "readout-kind": "Mean logPe", "recorded-result": -5.39}
{"molecule": "CCCCOc1cc(C(=O)NCCN(CC)CC)c2ccccc2n1", "readout-kind": "Mean logPe", "recorded-result": -4.31}
{"molecule": "COCCc1ccc(OCC(O)CNC(C)C)cc1 (stereo not shown)", "readout-kind": "Mean logPe", "recorded-result": -4.96}
{"molecule": "O=C1NC(=O)C(c2ccccc2)(c2ccccc2)N1", "readout-kind": "Mean logPe", "recorded-result": -4.42}

* * *

Experiment: PAMPA permeability, liver polar lipid extract (LPLE) membrane
Details: n=3
readout-kind: Mean logPe

{"compound": "NC(N)=Nc1nc(CSCCC(N)=NS(N)(=O)=O)cs1", "readout-kind": "Mean logPe", "relational-operator": "<", "recorded-result": -6.49}
{"compound": "CC(C)C(=O)Nc1ccc([N+](=O)[O-])c(C(F)(F)F)c1 [flutamide]", "readout-kind": "Mean logPe", "relational-operator": "=", "recorded-result": -4.54}
{"compound": "CC(C)c1nc(N(C)S(C)(=O)=O)nc(-c2ccc(F)cc2)c1/C=C/[C@@H](O)C[C@@H](O)CC(=O)O", "readout-kind": "Mean logPe", "relational-operator": "<", "recorded-result": -6.32}
{"compound": "CCCCOc1cc(C(=O)NCCN(CC)CC)c2ccccc2n1", "readout-kind": "Mean logPe", "relational-operator": "=", "recorded-result": -4.40}
{"compound": "CC1=NNS(=O)(=O)c2c1ccc(Cl)c2Cl", "readout-kind": "Mean logPe", "relational-operator": "=", "recorded-result": -4.91}
{"compound": "CC(=O)CC(c1ccccc1)c1c(O)c2ccccc2oc1=O (stereo not shown)", "readout-kind": "Mean logPe", "relational-operator": "=", "recorded-result": -5.14}
{"compound": "Cc1c(OCC(F)(F)F)ccnc1C[S+]([O-])c1nc2ccccc2[nH]1 (stereo not shown)", "readout-kind": "Mean logPe", "relational-operator": "=", "recorded-result": -4.62}
{"compound": "CC(C)Cc1ccc(C(C)C(=O)O)cc1 (stereo not shown)", "readout-kind": "Mean logPe", "relational-operator": "=", "recorded-result": -4.61}
{"compound": "NC(=O)Cc1cccc(C(=O)c2ccccc2)c1N", "readout-kind": "Mean logPe", "relational-operator": "=", "recorded-result": -4.44}
{"compound": "Nc1c(Br)cc(Br)cc1CN[C@H]1CC[C@H](O)CC1", "readout-kind": "Mean logPe", "relational-operator": "=", "recorded-result": -4.26}

* * *

Attribute: Papp at 4 h, 100 μM
Test: PAMPA permeability, brain total lipid extract (BTLE) membrane
Conditions: pig, PAMPA, pH 7.4

{"compound": "O=C1CN=C(c2ccccc2)c2cc([N+](=O)[O-])ccc2N1", "relational-operator": "=", "Papp at 4 h, 100 μM / ×10⁻⁶ cm/s": 34.1}
{"compound": "COc1ccc2c(c1)N(C[C@H](C)CN(C)C)c1ccccc1S2", "relational-operator": "=", "Papp at 4 h, 100 μM / ×10⁻⁶ cm/s": 15.8}
{"compound": "Cn1c(=O)c2c(ncn2C)n(C)c1=O", "relational-operator": "=", "Papp at 4 h, 100 μM / ×10⁻⁶ cm/s": 1.96}
{"compound": "CC(C)C(=O)Nc1ccc([N+](=O)[O-])c(C(F)(F)F)c1 [flutamide]", "relational-operator": "=", "Papp at 4 h, 100 μM / ×10⁻⁶ cm/s": 35.5}
{"compound": "CCn1cc(C(=O)O)c(=O)c2cc(F)c(N3CCNCC3)nc21", "relational-operator": "=", "Papp at 4 h, 100 μM / ×10⁻⁶ cm/s": 4.48}
{"compound": "CO/N=C(\\C(=O)N[C@@H]1C(=O)N2C(C(=O)O)=C(COC(N)=O)CS[C@H]12)c1ccco1", "relational-operator": "=", "Papp at 4 h, 100 μM / ×10⁻⁶ cm/s": 1.28}
{"compound": "CC1Cc2ccccc2N1NC(=O)c1ccc(Cl)c(S(N)(=O)=O)c1 (stereo not shown) [indapamide]", "relational-operator": "=", "Papp at 4 h, 100 μM / ×10⁻⁶ cm/s": 5.22}
{"compound": "CCn1cc(C(=O)O)c(=O)c2cc(F)c(N3CCNCC3)cc21", "relational-operator": "<", "Papp at 4 h, 100 μM / ×10⁻⁶ cm/s": 0.49}
{"compound": "Cc1c(OCC(F)(F)F)ccnc1C[S+]([O-])c1nc2ccccc2[nH]1 (stereo not shown)", "relational-operator": "=", "Papp at 4 h, 100 μM / ×10⁻⁶ cm/s": 28.6}
{"compound": "CC1=NNS(=O)(=O)c2c1ccc(Cl)c2Cl", "relational-operator": "=", "Papp at 4 h, 100 μM / ×10⁻⁶ cm/s": 3.23}
